Species on record: Homo sapiens
Test: Selectivity ratio of Ki(app) for JAK1 (unknown origin) to Ki(app) for human EGFR catalytic domain (668 to 1210 residues) T790M/L858R double mutant
This section presents molecules with their documented Ratio Ki(app) values.
Note: the reply should be a number with no unit written.

CN1CCN(c2ccc(NC(=O)c3c(Nc4ccnc(N)n4)cc[nH]c3=O)cc2)CC1 | 3
COc1ccccc1Nc1cc[nH]c(=O)c1-c1nc2c(C(C)C)cccc2[nH]1 | 2
CCc1cc(NC(=O)c2c(Nc3ccccc3OC)cc[nH]c2=O)ccc1N1CCN(C)CC1 | 104
COc1ccccc1Nc1cc[nH]c(=O)c1C(=O)Nc1ccc(N2CCN(C)CC2)cc1 | 9
COc1ccccc1Nc1cc[nH]c(=O)c1-c1nc2c(C(C)C)ccc(C)c2[nH]1 | 6

Next, consider the following molecule.
So what does the record say about Ratio Ki(app) for COc1ccccc1Nc1cc[nH]c(=O)c1C(=O)Nc1ccc(N2CCN(C)CC2)c(C)c1 ?
42

* * *

Biological target: Epidermal growth factor receptor (Homo sapiens, UniProt P00533, L858R/T790M)
Sequence (P00533 whole entry, the tested form may be a part): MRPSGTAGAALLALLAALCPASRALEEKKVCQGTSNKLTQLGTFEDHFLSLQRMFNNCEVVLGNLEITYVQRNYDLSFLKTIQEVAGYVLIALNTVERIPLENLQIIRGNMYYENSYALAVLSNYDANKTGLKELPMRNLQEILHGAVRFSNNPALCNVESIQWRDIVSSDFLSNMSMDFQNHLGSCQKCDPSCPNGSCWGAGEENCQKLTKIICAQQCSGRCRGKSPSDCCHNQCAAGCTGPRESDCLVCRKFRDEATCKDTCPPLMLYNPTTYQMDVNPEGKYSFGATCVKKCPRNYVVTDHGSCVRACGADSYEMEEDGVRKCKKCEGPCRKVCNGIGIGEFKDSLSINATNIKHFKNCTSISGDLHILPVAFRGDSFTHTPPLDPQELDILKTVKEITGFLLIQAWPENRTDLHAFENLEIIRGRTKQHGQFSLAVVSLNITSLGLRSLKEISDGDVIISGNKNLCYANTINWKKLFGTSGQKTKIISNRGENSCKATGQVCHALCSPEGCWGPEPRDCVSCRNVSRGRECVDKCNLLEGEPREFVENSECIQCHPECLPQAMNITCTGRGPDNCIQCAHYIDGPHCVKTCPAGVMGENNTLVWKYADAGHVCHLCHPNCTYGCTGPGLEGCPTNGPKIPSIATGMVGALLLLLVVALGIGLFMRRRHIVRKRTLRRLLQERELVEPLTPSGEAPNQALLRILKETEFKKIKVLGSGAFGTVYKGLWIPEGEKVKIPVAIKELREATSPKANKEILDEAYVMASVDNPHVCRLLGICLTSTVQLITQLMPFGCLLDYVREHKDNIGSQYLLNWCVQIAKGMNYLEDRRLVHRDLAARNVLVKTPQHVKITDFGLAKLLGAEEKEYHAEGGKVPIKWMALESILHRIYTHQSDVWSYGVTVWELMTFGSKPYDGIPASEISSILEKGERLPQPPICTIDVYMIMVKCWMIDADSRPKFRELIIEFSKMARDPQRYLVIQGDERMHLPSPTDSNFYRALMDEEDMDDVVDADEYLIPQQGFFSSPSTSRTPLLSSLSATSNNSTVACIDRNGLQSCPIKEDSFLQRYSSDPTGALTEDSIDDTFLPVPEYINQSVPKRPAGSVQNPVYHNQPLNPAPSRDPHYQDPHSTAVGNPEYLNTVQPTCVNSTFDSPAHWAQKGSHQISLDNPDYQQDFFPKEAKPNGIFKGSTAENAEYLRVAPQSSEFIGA
Test: Inhibition of human EGFR catalytic domain (668 to 1210 residues) T790M/L858R double mutant using Fl-EEPLYWSFPAKKK-CONH2 peptide substrate preincubated for 30 mins followed by substrate addition measured after 30 mins by Caliper Mobility Shift Assay
Conditions: read-out: Ki(app)
pKi: −log10 of the molar value.
Is pKi at least 7? Then Satisfied. If not, Not satisfied.

Before answering, review these 5 worked examples.
CN1CCN(c2ccc(NC(=O)c3c(NCc4ccccc4)cc[nH]c3=O)cc2)CC1 | Not satisfied
CCc1cc(NC(=O)c2c(Nc3ccccc3OC)cc[nH]c2=O)ccc1N1CCN(C)CC1 | Satisfied
CN1CCN(c2ccc(NC(=O)c3c(NCCc4ccc(Cl)cc4)cc[nH]c3=O)cc2)CC1 | Not satisfied
COc1ccccc1N(C)c1cc[nH]c(=O)c1C(=O)Nc1ccc(N2CCN(C)CC2)cc1 | Not satisfied
O=C(Nc1ccccc1)c1c(NCCc2cccc(Cl)c2)cc[nH]c1=O | Not satisfied

Does COc1ccccc1Nc1cc[nH]c(=O)c1C(=O)Nc1ccc(CN2CCN(C)CC2)cc1 have a reported pKi of at least 7?
Satisfied

Does COc1ccccc1Nc1cc[nH]c(=O)c1C(=O)Nc1ccc(N2CCN(C)CC2)c(C)c1 have a reported pKi of at least 7?
Satisfied

Does COc1ccccc1Nc1cc[nH]c(=O)c1C(=O)Nc1ccc(C2CCN(C)CC2)cc1 have a reported pKi of at least 7?
Satisfied

Does COc1ccccc1Nc1cc[nH]c(=O)c1C(=O)Nc1ccc(N2CCCN(C)CC2)cc1 have a reported pKi of at least 7?
Satisfied

Does CN1CCN(c2ccc(NC(=O)c3c(N)cc[nH]c3=O)cc2)CC1 have a reported pKi of at least 7?
Not satisfied

Does CN1CCN(c2ccc(NC(=O)c3c(Nc4ccnc(N)n4)cc[nH]c3=O)cc2)CC1 have a reported pKi of at least 7?
Satisfied

Does COc1ccccc1Nc1cc[nH]c(=O)c1C(=O)Nc1ccc(N2CCN(C)CC2)cn1 have a reported pKi of at least 7?
Not satisfied

* * *

Consider molecules characterized by their Ki with Epidermal growth factor receptor (Homo sapiens).

COc1ccccc1Nc1cc[nH]c(=O)c1C(N)=O | > 2500 nM
COc1ccccc1Nc1cc[nH]c(=O)c1C(=O)Nc1ccc(N2CCN(C)CC2)nc1 | > 2500 nM
CN1CCN(c2ccc(NC(=O)c3c(Nc4ccncn4)cc[nH]c3=O)cc2)CC1 | > 2540 nM
CN1CCN(c2ccc(NC(=O)c3c(Nc4ccncc4N)cc[nH]c3=O)cc2)CC1 | > 1230 nM
CN1CCN(c2ccc(NC(=O)c3c(Nc4ccc(Cl)cc4)cc[nH]c3=O)cc2)CC1 | > 2540 nM
COc1ccccc1N(C)c1cc[nH]c(=O)c1C(=O)Nc1ccc(N2CCN(C)CC2)cc1 | > 2540 nM
CN1CCN(c2ccc(NC(=O)c3c(Nc4ccccn4)cc[nH]c3=O)cc2)CC1 | > 2540 nM
CN1CCN(c2ccc(NC(=O)c3c(Nc4ccccc4)cc[nH]c3=O)cc2)CC1 | > 2540 nM
COc1ccccc1Nc1cc[nH]c(=O)c1C(=O)Nc1ccc(N2CCN(C)CC2)cn1 | > 2500 nM

Next, consider the following molecule.
Hi! What's the reported Ki for COc1ccccc1Nc1cc[nH]c(=O)c1C(=O)Nc1ccc(N2CCC(C)CC2)cc1 on Epidermal growth factor receptor (Homo sapiens)?
> 2500 nM

* * *

Biological target: Epidermal growth factor receptor (Homo sapiens, UniProt P00533, L858R/T790M)
Assay: Inhibition of human EGFR catalytic domain (668 to 1210 residues) T790M/L858R double mutant using Fl-EEPLYWSFPAKKK-CONH2 peptide substrate preincubated for 30 mins followed by substrate addition measured after 30 mins by Caliper Mobility Shift Assay
Conditions: read-out: Ki(app)
This section presents compounds with their documented pKi values.
Units for pKi: none; it is -log10 of a concentration expressed in mol/L.

Here is how some compounds turned out for pKi.
CN1CCN(c2ccc(NC(=O)c3c(Nc4ccccc4Cl)cc[nH]c3=O)cc2)CC1 | 7.09
Cc1ccccc1Nc1cc[nH]c(=O)c1C(=O)Nc1ccc(N2CCN(C)CC2)cc1 | 7.21
CN1CCN(c2ccc(NC(=O)c3c(Nc4cccc(Cl)c4)cc[nH]c3=O)cc2)CC1 | 6.81

So what does the record say about pKi for CN1CCN(c2ccc(NC(=O)c3c(NC[C@@H](O)c4cccc(Cl)c4)cc[nH]c3=O)cc2)CC1 ?
7.19

So what does the record say about pKi for COc1ccccc1Nc1cc[nH]c(=O)c1-c1nc2c(C(C)C)ccc(C)c2[nH]1 ?
7.06

So what does the record say about pKi for COc1ccccc1Nc1cc[nH]c(=O)c1C(=O)Nc1ccc(N2CCN(C)CC2)nc1 ?
7.11

So what does the record say about pKi for CN1CCN(c2ccc(NC(=O)c3c(Nc4ccncn4)cc[nH]c3=O)cc2)CC1 ?
7.02

So what does the record say about pKi for CN1CCN(c2ccc(NC(=O)c3c(Nc4ccncc4N)cc[nH]c3=O)cc2)CC1 ?
6.84

Data provenance is ChEMBL document CHEMBL3779874.
